Target: CCNE1 (Homo sapiens)
Construct: host or cells: HEK293-CCNE1-Hibit
Sequence (P24864 whole entry): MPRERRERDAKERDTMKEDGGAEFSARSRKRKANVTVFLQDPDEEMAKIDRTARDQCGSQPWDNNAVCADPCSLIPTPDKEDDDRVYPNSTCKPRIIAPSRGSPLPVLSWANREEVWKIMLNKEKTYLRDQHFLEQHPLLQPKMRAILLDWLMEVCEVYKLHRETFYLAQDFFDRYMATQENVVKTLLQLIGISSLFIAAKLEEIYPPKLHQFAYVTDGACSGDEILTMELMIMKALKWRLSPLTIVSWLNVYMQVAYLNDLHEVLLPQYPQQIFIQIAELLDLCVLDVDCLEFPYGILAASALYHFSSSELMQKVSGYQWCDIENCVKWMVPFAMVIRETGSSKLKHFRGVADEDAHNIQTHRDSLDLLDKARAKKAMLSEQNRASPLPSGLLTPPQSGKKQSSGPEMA
Experiment: HiBit Assay Protocol for CCNE1 (HIBIT protein quantification, degradation)
Assay type: cell-based
Conditions: HEK293-CCNE1-Hibit cells, compound treatment for 6 hours
Entries and their CCNE1 HIBIT Protein Quantification Maximum
State just the number; it will be interpreted in %.

Answered examples (3):
Compound	Numeric value
CC1CCCC1N1C(=O)C2(CC2)c2cnc(NC3CCN(S(=O)(=O)N4CC5(CCCN(C6CCCN(c7cccc8c7n(C)c(=O)n8C7CCC(=O)NC7=O)C6)C5)C4)CC3)nc21 (stereo not shown) [Compound 135]	8
CC(C)[C@H]1CN([C@H](C)c2cccc(S(=O)(=O)N3CC[C@H](Nc4ncc5c(n4)N([C@@H]4CCC[C@@H](O)C4)C(=O)C54CC4)[C@H](F)C3)c2)CCN1c1ccc2c(N3CCC(=O)NC3=O)nn(C)c2c1 (stereo in doubt) [Compound 203]	34
Cn1nc(N2CCC(=O)NC2=O)c2ccc(C3CCN(Cc4cccc(S(=O)(=O)N5CCC(Nc6ncc7c(n6)N([C@@H]6CCC[C@@H](O)C6)C(=O)C76CC6)CC5)c4)CC3F)cc21 (stereo partly shown) [Compound 180]	48

Q) CCNE1 HIBIT Protein Quantification Maximum lookup needed for Cn1nc(N2CCC(=O)NC2=O)c2ccc(C3CCN(Cc4cccc(S(=O)(=O)N5CCC(Nc6ncc7c(n6)N([C@@H]6CCC[C@@H](O)C6)C(=O)C76CCC6)CC5)c4)CC3)cc21 [Compound 174] , thanks.
A) 47

Q) CCNE1 HIBIT Protein Quantification Maximum lookup needed for CC1CCCC1N1C(=O)C2(CC2)c2cnc(NC3CCN(S(=O)(=O)N4CCC5(CCN(C(=O)CCCCCCCCCc6cccc7c6n(C)c(=O)n7C6CCC(=O)NC6=O)C5)C4)CC3)nc21 (stereo not shown) [Compound 52] , thanks.
A) 19

Q) CCNE1 HIBIT Protein Quantification Maximum lookup needed for CC1CCCC1N1C(=O)C2(CC2)c2cnc(NC3CCN(S(=O)(=O)N4CC5(CCN(C(=O)CCc6cccc7c6n(C)c(=O)n7C6CCC(=O)NC6=O)CC5)C4)CC3)nc21 (stereo not shown) [Compound 20] , thanks.
A) 29

Q) CCNE1 HIBIT Protein Quantification Maximum lookup needed for CC1CCCC1N1C(=O)C2(CC2)c2cnc(NC3CCN(S(=O)(=O)N4CC5(CN(C(=O)CCCCc6cccc7c6n(C)c(=O)n7C6CCC(=O)NC6=O)C5)C4)CC3)nc21 (stereo not shown) [Compound 97] , thanks.
A) 14

Q) CCNE1 HIBIT Protein Quantification Maximum lookup needed for O=C1CCC(N2Cc3cc(N4CC5(CN(Cc6cccc(S(=O)(=O)N7CCC(Nc8ncc9c(n8)N([C@@H]8CCC[C@@H](O)C8)C(=O)C98CC8)CC7)c6)C5)C4)ccc3C2=O)C(=O)N1 (stereo partly shown) [Compound 120] , thanks.
A) 23

Q) CCNE1 HIBIT Protein Quantification Maximum lookup needed for Cn1nc(N2CCC(=O)NC2=O)c2ccc(C3CCN(Cc4cccc(S(=O)(=O)N5CCC(Nc6ncc7c(n6)N([C@@H]6CCC[C@@H](O)C6)C(=O)C76CC6)CC5)c4F)CC3)cc21 [Compound 172] , thanks.
A) 49

Q) CCNE1 HIBIT Protein Quantification Maximum lookup needed for CC1CCCC1N1C(=O)C2(CC2)c2cnc(NC3CCN(S(=O)(=O)N4CC5(CCN(C(=O)Cc6cccc7c6n(C)c(=O)n7C6CCC(=O)NC6=O)CC5)C4)CC3)nc21 (stereo not shown) [Compound 15] , thanks.
A) 15
